- MEASURED_TARGET: human apelin receptor (Homo sapiens, UniProt P35414)
- EXPERIMENT_DESCRIPTION: Measurement of apelin receptor agonist activity (cell-based assay determining the amount of intracellular cAMP)
- MEASUREMENT_CONTEXT: CHO cells stably expressing the human apelin receptor, Forskolin 10 μM, 30 minutes, 100% efficacy = [Pyr1]-apelin-13 0.300 μM, concentration giving 50% efficacy
MEASUREMENT_TYPE: log10 of EC50 (log10 of the value in nM)

COc1cccc(OC)c1-n1c(SCC(=O)O)nnc1-c1cccs1 [Example 30]	2.52
COc1cccc(OC)c1-n1c(SCc2cc(=O)n3cc(C)ccc3n2)nnc1-c1cccs1 [Example 11]	0.70
COc1cccc(OC)c1-n1c(/C=C/C(C)=O)nnc1-c1ccc(C)o1 [Example 20]	2.86
CCCCc1nnc(SCC(=O)O)n1-c1c(OC)cccc1OC [Example 29]	2.91
COc1cccc(OC)c1-n1c(SC(C(=O)O)c2cccc3ccccc23)nnc1-c1ccc(C)o1 (stereo not drawn) [Example 38]	0.95
COc1cccc(OC)c1-n1c(S)nnc1-c1cccs1 [Example 10]	2.28
COc1cccc(OC)c1-n1c(SCc2cc(=O)[nH]c(=O)[nH]2)nnc1-c1ccc(C)o1 [Example 14]	2.63
COc1cccc(OC)c1-n1c(SCC(=O)O)nnc1-c1cc(C)c(C)o1 [Example 63]	2.85
CCOC(=O)CSc1nnc(-c2ccc(C)o2)n1-c1c(OC)cccc1OC [Example 4]	2.09
COc1cccc(OC)c1-n1c(/C=C/C(=O)N2CCC[C@H]2C(=O)O)nnc1-c1ccc(C)o1 [Example 93]	2.56
COc1cccc(OC)c1-n1c(/C=C/C(=O)O)nnc1-c1ccc(C)o1 [Example 64]	1.72
COc1cccc(OC)c1-n1c(SC(Cc2ccccc2)C(=O)O)nnc1-c1ccc(C)o1 (stereo not drawn) [Example 39]	1.04
CCOC(=O)CCc1nnc(-c2ccc(C)o2)n1-c1c(OC)cccc1OC [Example 12]	2.85
COc1cccc(OC)c1-n1c(SCc2nccs2)nnc1-c1ccc(C)o1 [Example 76]	2.20
COc1cccc(OC)c1-n1c(-c2ccccc2)nnc1-c1ccc(C)o1 [Example 57]	3.08
COc1cccc(OC)c1-n1c(/C=C/C(=O)O)nnc1-c1ccc(C)o1 [Example 65]	1.88
COc1cccc(OC)c1-n1c(SCc2n[nH]c(=O)o2)nnc1-c1ccc(C)o1 [Example 101]	2.77
COc1cccc(OC)c1-n1c(SCC(=O)O)nnc1-c1ccco1 [Example 61]	2.61

----------
- MEASURED_TARGET: human apelin receptor (Homo sapiens)
- EXPERIMENT_DESCRIPTION: Measurement of apelin receptor agonist activity (cell-based assay determining the amount of intracellular cAMP)
- MEASUREMENT_CONTEXT: CHO cells stably expressing the human apelin receptor, Forskolin 10 μM, 30 minutes, 100% efficacy = [Pyr1]-apelin-13 0.300 μM, concentration giving 50% efficacy
- Description: Measurement of Apelin Receptor Agonist Activity The apelin receptor agonist activity of the compound represented by formula (I) or (II) of the present invention was measured by cell-based assay for determining the amount of intracellular cAMP. […] The amount of cAMP determined by the addition of a positive control [Pyr1]-apelin-13 (final concentration: 0.300 μM) and Forskolin (final concentration: 10 μM) at the same time was used as an index to define 100% efficacy. […]
MEASUREMENT_TYPE: EC50 (µM)

COC(=O)/C=C\c1nnc(-c2ccc(C)o2)n1-c1c(OC)cccc1OC [Example 55]	1.92
COc1cccc(OC)c1-n1c(-c2ccc(C(=O)O)cc2)nnc1-c1ccc(C)o1 [Example 48]	0.022
COc1cccc(OC)c1-n1c(/C=C/C(=O)N(C)OC)nnc1-c1ccc(C)o1 [Example 54]	1.2
COc1cccc(OC)c1-n1c(SCCCCC(=O)O)nnc1-c1ccc(C)o1 [Example 49]	0.393
COC(=O)c1ccc(-c2nnc(-c3ccc(C)o3)n2-c2c(OC)cccc2OC)cc1 [Example 47]	0.419

----------
- MEASURED_TARGET: human apelin receptor (Homo sapiens, UniProt P35414)
- EXPERIMENT_DESCRIPTION: Measurement of apelin receptor agonist activity (cell-based assay determining the amount of intracellular cAMP)
- MEASUREMENT_CONTEXT: CHO cells stably expressing the human apelin receptor, Forskolin 10 μM, 30 minutes, 100% efficacy = [Pyr1]-apelin-13 0.300 μM, concentration giving 50% efficacy
pEC50: −log10 of the molar value.
MEASUREMENT_TYPE: pEC50

COc1cccc(OC)c1-n1c(CCC(=O)O)nnc1-c1ccc(C)o1	6.80
COc1cccc(OC)c1-n1c(OCC(=O)O)nnc1-c1ccc(C)o1	7.46
COc1cccc(OC)c1-n1c(SCc2cc(=O)n3nccc3[nH]2)nnc1-c1ccc(C)o1	6.50
COc1cccc(OC)c1-n1c(/C=C/c2cc(=O)n3cc(C)ccc3n2)nnc1-c1ccc(C)o1	6.66
COc1cccc(OC)c1-n1c(SCCCCCC(=O)O)nnc1-c1ccc(C)o1	5.88
COc1cccc(OC)c1-n1c(SCc2cc(=O)[nH][nH]2)nnc1-c1ccc(C)o1	7.32
COc1cccc(OC)c1-n1c(SCc2cccnn2)nnc1-c1ccc(C)o1	6.89
COc1cccc(OC)c1-n1c(SCc2nnn[nH]2)nnc1-c1ccc(C)o1	7.01
COC(=O)[C@@H]1CCCN1C(=O)/C=C/c1nnc(-c2ccc(C)o2)n1-c1c(OC)cccc1OC	6.30
Cc1ccc(-c2nnc(SCC(=O)O)n2-c2c(Cl)cccc2Cl)o1	5.40
COc1cccc(OC)c1-n1c(/C=C/C(C)O)nnc1-c1ccc(C)o1 (centres unmarked)	6.57
COc1cccc(OC)c1-n1c(SC(C)C(=O)O)nnc1-c1ccc(C)o1 (centres unmarked)	7.35
COc1cccc(OC)c1-n1c(CCC(C)O)nnc1-c1ccc(C)o1 (centres unmarked)	5.76
COC(=O)[C@@H]1C[C@@H](O)CN1C(=O)/C=C/c1nnc(-c2ccc(C)o2)n1-c1c(OC)cccc1OC	6.45
CCCC(Sc1nnc(-c2ccc(C)o2)n1-c1c(OC)cccc1OC)C(=O)O (centres unmarked)	7.92
COc1cccc(OC)c1-n1c(CNC(=O)C(=O)O)nnc1-c1ccc(C)o1	5.93
COc1cccc(OC)c1-n1c(SCC#N)nnc1-c1ccc(C)o1	6.57
COc1cccc(OC)c1-n1c(SCc2nc(=O)o[nH]2)nnc1-c1ccc(C)o1	7.15
COc1cccc(OC)c1-n1c(Br)nnc1-c1ccc(C)o1	5.92
COc1cccc(OC)c1-n1c(SCC(=O)O)nnc1-c1ccccc1	5.85
COc1cccc(OC)c1-n1c(SCCCC(=O)O)nnc1-c1ccc(C)o1	7.06
CCOC(=O)COCc1nnc(-c2ccc(C)o2)n1-c1c(OC)cccc1OC	6.09
COc1cccc(OC)c1-n1c(SCc2cc(=O)n3cc(C)ccc3n2)nnc1-c1ccc(C)o1	9.00
COc1cccc(OC)c1-n1cnnc1-c1ccc(C)o1	6.15
COC(=O)c1ccccc1-c1nnc(-c2ccc(C)o2)n1-c1c(OC)cccc1OC	5.55
COc1cccc(OC)c1-n1c(SCC(=O)O)nnc1C1CCCC1	5.61
COC(=O)C(Sc1nnc(-c2ccc(C)o2)n1-c1c(OC)cccc1OC)c1ccccn1 (racemic)	6.58
COc1cccc(OC)c1-n1c(CNS(=O)(=O)c2ccc(C)cc2)nnc1-c1ccc(C)o1	6.18
COc1cccc(OC)c1-n1c(/C=C/C#N)nnc1-c1ccc(C)o1	5.58
COC(=O)c1ccccc1CSc1nnc(-c2ccc(C)o2)n1-c1c(OC)cccc1OC	6.25
COc1cccc(OC)c1-n1c(CN)nnc1-c1ccc(C)o1	6.42
COc1cccc(OC)c1-n1c(/C=C/C(=O)O)nnc1-c1ccc(C)o1 [Example 9]	7.74
COc1cccc(OC)c1-n1c(SCc2cc(=O)n(C)c(=O)n2C)nnc1-c1ccc(C)o1	6.79
COc1cccc(OC)c1-n1c(CNS(C)(=O)=O)nnc1-c1ccc(C)o1	5.97
COc1cccc(OC)c1-n1c(CO)nnc1-c1ccc(C)o1	6.09

----------
- MEASURED_TARGET: human apelin receptor (Homo sapiens, UniProt P35414)
- Sequence (P35414 1-380): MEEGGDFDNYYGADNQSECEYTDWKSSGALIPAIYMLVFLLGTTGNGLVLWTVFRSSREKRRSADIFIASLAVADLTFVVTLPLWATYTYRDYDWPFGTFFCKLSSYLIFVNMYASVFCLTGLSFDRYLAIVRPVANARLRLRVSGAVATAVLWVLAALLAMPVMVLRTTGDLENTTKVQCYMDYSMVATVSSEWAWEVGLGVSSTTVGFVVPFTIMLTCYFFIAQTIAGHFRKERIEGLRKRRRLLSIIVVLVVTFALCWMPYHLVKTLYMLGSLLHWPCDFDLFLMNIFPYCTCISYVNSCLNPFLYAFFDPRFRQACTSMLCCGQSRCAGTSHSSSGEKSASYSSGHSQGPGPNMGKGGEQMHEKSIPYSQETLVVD
- EXPERIMENT_DESCRIPTION: Measurement of apelin receptor agonist activity (cell-based assay determining the amount of intracellular cAMP)
- MEASUREMENT_CONTEXT: CHO cells stably expressing the human apelin receptor, Forskolin 10 μM, 30 minutes, 100% efficacy = [Pyr1]-apelin-13 0.300 μM, concentration giving 50% efficacy
Label key: Y means EC50 under 0.3 µM; N means EC50 of 0.3 µM or more.

COc1cccc(OC)c1-n1c(/C=C/C(=O)N2C[C@H](O)C[C@H]2C(=O)O)nnc1-c1ccc(C)o1	Y
COc1cccc(OC)c1-n1c(SCc2n[nH]c(=O)[nH]2)nnc1-c1ccc(C)o1	N
COc1cccc(OC)c1-n1c(SCC(=O)O)cnc1-c1ccc(C)o1	N
COc1cccc(OC)c1-n1c(SCc2cccc(C(=O)O)c2)nnc1-c1ccc(C)o1	N
COc1cccc(OC)c1-n1c(SC)nnc1-c1ccc(C)o1	Y
COc1cccc(OC)c1-n1c(SCC(=O)NS(=O)(=O)c2ccccc2)nnc1-c1ccc(C)o1	Y
COC(=O)c1cccc(-c2nnc(-c3ccc(C)o3)n2-c2c(OC)cccc2OC)c1	N
COc1cccc(OC)c1-n1c(SCP(=O)(OC(C)C)OC(C)C)nnc1-c1ccc(C)o1	N
COc1cccc(OC)c1-n1c(CNC(=O)c2ccc(C)cc2)nnc1-c1ccc(C)o1	N
COc1cccc(OC)c1-n1c(SCc2ccc(C(N)=O)cc2)nnc1-c1ccc(C)o1	N
COc1ccnc(OC)c1-n1c(SCC(=O)O)nnc1-c1ccc(C)o1	Y
COc1cccc(OC)c1-n1c(SCP(=O)(O)O)nnc1-c1ccc(C)o1	Y
COc1cccc(OC)c1-n1c(SCC(N)=O)nnc1-c1ccc(C)o1	Y
COc1cccc(OC)c1-n1c(SC(C)(C)C(=O)O)nnc1-c1ccc(C)o1	Y
COc1cccc(OC)c1-n1c(SCc2ccccc2C(=O)O)nnc1-c1ccc(C)o1	Y
CCOC(=O)/C=C/c1nnc(-c2ccc(C)o2)n1-c1c(OC)cccc1OC	N
COc1cccc(OC)c1-n1c(SCC(=O)O)nnc1-c1cccnc1	N
CCc1nnc(-c2ccc(C)o2)n1-c1c(OC)cccc1OC	N
